# Test system: Jurkat cells
# assay-explanation: IL-2 secretion assay in Jurkat cells activated with CD3/CD28 T Cell Activator
# Type: cell-based
# measurement-conditions: Homo sapiens; Jurkat cells, CD3/CD28 T Cell Activator, 24 h, IL-2 AlphaLISA; read-out: IL-2 Secretion (EC50)
pEC50: −log10 of the molar value.
Parameter pEC50: see the listing below.
measured-metric: pEC50

>>> print(df.to_string())
                               smiles_input    test_value
0  COCCNCc1cc(C(=O)Nc2cc(-c3ccc(F)cc3C(=O)N3CC(F)(F)C3)cc(C3CC3)n2)c(=O)n(C2CC2)c1        > 7.00
1  COCCNCc1cc(C(=O)Nc2cc(-c3ccc(F)cc3C(=O)N3CC(F)(F)C3)cc(C3CC3)c2)c(=O)n(C2CC2)c1  6.00 to 7.00
2  CO[C@H]1CCCN(Cc2cc(C(=O)Nc3cc(-c4ccc(F)cc4-c4nncn4C)cc(C4CC4)n3)c(=O)n(C3CC3)c2)C1  6.00 to 7.00
3  CC(C)CNCc1cc(C(=O)Nc2cc(-c3ccc(OC(F)F)cc3C(=O)N3CC(F)(F)C3)cc(C3CC3)n2)c(=O)n(C2CC2)c1        > 7.00
4  C[C@H]1CCCN(Cc2cc(C(=O)Nc3cc(-c4ccc(F)cc4-c4nncn4C)cc(C4CC4)n3)c(=O)n(CC3CCOCC3)c2)C1  6.00 to 7.00
5  CO[C@@H](C)CNCc1cc(C(=O)Nc2cc(-c3ccc(Cl)cc3C(=O)N3CC(F)(F)C3)cc(C3CC3)n2)c(=O)n(C)c1        > 7.00

----------
Measured pIC50, listed per entry.
# study-system: Cbl-b (Homo sapiens, UniProt Q13191)
# Sequence (Q13191 whole entry, species assumed): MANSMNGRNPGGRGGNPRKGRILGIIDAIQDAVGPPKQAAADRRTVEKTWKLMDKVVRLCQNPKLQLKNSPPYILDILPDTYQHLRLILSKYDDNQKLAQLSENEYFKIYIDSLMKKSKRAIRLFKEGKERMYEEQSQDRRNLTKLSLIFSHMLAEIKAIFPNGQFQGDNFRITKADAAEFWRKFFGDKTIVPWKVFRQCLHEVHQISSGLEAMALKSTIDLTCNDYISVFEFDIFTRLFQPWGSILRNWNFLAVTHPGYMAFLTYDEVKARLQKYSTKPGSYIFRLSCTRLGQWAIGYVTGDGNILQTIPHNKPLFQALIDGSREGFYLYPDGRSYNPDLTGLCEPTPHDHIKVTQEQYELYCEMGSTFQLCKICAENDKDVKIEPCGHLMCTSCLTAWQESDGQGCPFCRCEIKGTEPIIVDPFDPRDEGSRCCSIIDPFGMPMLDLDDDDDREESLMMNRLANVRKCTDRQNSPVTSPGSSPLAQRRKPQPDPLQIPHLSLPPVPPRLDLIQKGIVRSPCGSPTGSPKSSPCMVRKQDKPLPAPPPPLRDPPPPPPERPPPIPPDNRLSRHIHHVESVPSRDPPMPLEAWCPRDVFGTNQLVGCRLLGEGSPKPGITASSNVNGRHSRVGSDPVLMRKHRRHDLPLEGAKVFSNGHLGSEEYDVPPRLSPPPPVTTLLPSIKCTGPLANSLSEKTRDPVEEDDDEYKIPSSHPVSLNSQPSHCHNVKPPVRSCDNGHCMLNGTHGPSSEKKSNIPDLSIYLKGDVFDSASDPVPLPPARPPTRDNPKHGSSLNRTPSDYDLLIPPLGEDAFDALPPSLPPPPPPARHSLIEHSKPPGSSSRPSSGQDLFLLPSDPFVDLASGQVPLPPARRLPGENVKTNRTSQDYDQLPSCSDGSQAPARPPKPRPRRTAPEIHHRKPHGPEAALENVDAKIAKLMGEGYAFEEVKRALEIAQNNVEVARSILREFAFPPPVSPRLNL
pIC50: −log10 of the molar value.
measured-metric: pIC50

In [3]: df
Out[3]:
                                   molecule  test_value
0  CC(C)CNCc1cc(C(=O)Nc2cc(-c3ccc(OC(F)F)cc3C(=O)N3CC(F)C3)cc(OC(C)C)n2)c(=O)n(C)c1 [Example 294]      > 7.00
1  COc1ccc(-c2cc(NC(=O)c3cc(CNCC(C)C)cn(C)c3=O)nc(C3CC3)c2)c(C(=O)N2CC(F)C2)c1 [Example 315]      > 7.00
2  N#Cc1ccc(-c2cc(NC(=O)c3cc(CNC[C@@H]4CCCO4)cn(C4CC4)c3=O)nc(OCC(F)F)c2)c(C(=O)N2CC(F)(F)C2)c1 [Example 132]      > 7.00

----------
# Test system: Jurkat cells
# assay-explanation: IL-2 secretion assay in Jurkat cells activated with CD3/CD28 T Cell Activator
# Format: cell-based
# measurement-conditions: Homo sapiens; Jurkat cells, CD3/CD28 T Cell Activator, 24 h, IL-2 AlphaLISA; read-out: IL-2 Secretion (EC50)
pEC50: −log10 of the molar value.
Examples of compounds with documented pEC50 follow.
measured-metric: pEC50

                                    compound  measured_metric    test_value
 0  Cn1ccnc1-c1cc(C#N)ccc1-c1cc(NC(=O)c2cc(CO)cn(C3CC3)c2=O)nc(C2CC2)c1 (single isomer, unassigned)            pEC50        < 5.30
 1  Cc1cccnc1-c1cc(C#N)ccc1-c1cc(NC(=O)c2cc(CN3CCO[C@H](C)C3)cn(C3CC3)c2=O)nc(C2CC2)c1            pEC50  5.30 to 6.00
 2  Cn1cnnc1-c1cc(F)ccc1-c1cc(NC(=O)c2cc(CNCCC(F)(F)F)cn(C3CC3)c2=O)nc(C2CC2)c1            pEC50        > 7.00
 3  COCCNCc1cc(C(=O)Nc2cc(-c3ccc(F)cc3-c3nncn3C)cc(C3CC3)n2)c(=O)n(C2CC2)c1            pEC50        > 7.00
 4  C[C@H]1CCCN(Cc2cc(C(=O)Nc3cc(-c4ccc(F)cc4-c4nncn4C)cc(C4CC4)n3)c(=O)n(CCO)c2)C1            pEC50        > 7.00
 5  CN1C[C@@H]2C[C@H]1CN2Cc1cc(C(=O)Nc2cc(-c3ccc(C#N)cc3-c3nccn3C)cc(C3CC3)n2)c(=O)n(C2CC2)c1            pEC50  5.30 to 6.00
 6  COCCNCc1cc(C(=O)Nc2cc(-c3ccc(C#N)cc3-c3nncn3C)cc(C3CC3)n2)c(=O)n(C2CC2)c1            pEC50        > 7.00
 7  COCCNCc1cc(C(=O)Nc2cc(-c3ccc(C#N)cc3-c3ncoc3C)cc(C3CC3)n2)c(=O)n(C2CC2)c1 (single isomer, unassigned)            pEC50        > 7.00
 8  COC(F)(F)CNCc1cc(C(=O)Nc2cc(-c3ccc(F)cc3-c3nncn3C)cc(C3CC3)n2)c(=O)n(C2CC2)c1            pEC50  6.00 to 7.00
 9  C[C@H]1CCCN(Cc2cc(C(=O)Nc3cc(-c4ccc(F)cc4-c4nncn4C)cc(C4CC4)n3)c(=O)n(CC(F)(F)F)c2)C1            pEC50        > 7.00
10  COCCNCc1cc(C(=O)Nc2cc(-c3ccc(F)cc3-n3nncc3C)cc(C3CC3)n2)c(=O)n(C2CC2)c1            pEC50        > 7.00
11  CO[C@@H](C)CNCc1cc(C(=O)Nc2cc(-c3ccc(Cl)cc3C(=O)N3CC(F)(F)C3)cc(OCC(F)(F)F)n2)c(=O)n(C2CC2)c1            pEC50        > 7.00
12  CO[C@H]1CCC[C@@H]1NCc1cc(C(=O)Nc2cc(-c3ccc(C#N)cc3C(=O)N3CC(F)(F)C3)cc(C3CC3)n2)c(=O)n(CC(F)(F)F)c1            pEC50        > 7.00
13  Cn1cnnc1-c1cc(F)ccc1-c1cc(NC(=O)c2cc(-c3cc[nH]n3)cn(C3CC3)c2=O)nc(C2CC2)c1            pEC50        < 5.30
14  COC[C@H](C)NCc1cc(C(=O)Nc2cc(-c3ccc(F)cc3-c3nncn3C)cc(C3CC3)n2)c(=O)n(C2CC2)c1            pEC50        > 7.00
15  COCCNCc1cc(C(=O)Nc2cc(-c3ccc(F)cc3-n3cc(CF)nn3)cc(C3CC3)n2)c(=O)n(C2CC2)c1            pEC50  5.30 to 6.00
16  COCCNCc1cc(C(=O)Nc2cc(-c3ccc(C#N)cc3-c3ocnc3C)cc(C3CC3)n2)c(=O)n(C2CC2)c1            pEC50        < 5.30
17  CO[C@@H](C)CNCc1cc(C(=O)Nc2cc(-c3ccc(OC(F)F)cc3C(=O)N3CC(F)(F)C3)cc(C3CC3)n2)c(=O)n(C2CC2)c1            pEC50        > 7.00
18  CO[C@@H]1CCN(Cc2cc(C(=O)Nc3cc(-c4ccc(F)cc4-c4nncn4C)cc(C4CC4)n3)c(=O)n(C3CC3)c2)C1            pEC50  6.00 to 7.00
19  Cn1cnnc1-c1cc(F)ccc1-c1cc(NC(=O)c2cc(C3CC3)cn(C3CC3)c2=O)nc(C2CC2)c1            pEC50  5.30 to 6.00
20  CN(C)Cc1c[nH]c(=O)c(C(=O)Nc2cc(-c3ccc(F)cc3-c3nncn3C)cc(C3CC3)n2)c1            pEC50  5.30 to 6.00
21  CO[C@@H](C)CNCc1cc(C(=O)Nc2cc(-c3ccc(Cl)cc3C(=O)N3CC(F)(F)C3)cc(OCC(F)F)n2)c(=O)n(C2CC2)c1            pEC50        > 7.00
22  COCCNCc1cc(C(=O)Nc2cc(-c3ccc(F)cc3C(=O)N3CC(F)C3)cc(C3CC3)n2)c(=O)n(C2CC2)c1            pEC50        > 7.00
23  CC1CC(c2cccc(NC(=O)c3cc(CN4CCC[C@H](C)C4)cn(CC4CC4)c3=O)c2)(c2nncn2C)C1 (mixture of isomers)            pEC50  6.00 to 7.00
24  CO[C@@H](C)[C@H](C)NCc1cc(C(=O)Nc2cc(-c3ccc(F)cc3-c3nncn3C)cc(C3CC3)n2)c(=O)n(C2CC2)c1            pEC50        > 7.00
25  COCCNCc1cc(C(=O)Nc2cc(-c3ccc(C#N)cc3-c3nc(C#N)cn3C)cc(C3CC3)n2)c(=O)n(C2CC2)c1            pEC50        > 7.00

// data source = patent US20260116868A1
